Reported IC50 values follow for various sequences
Target: HLA-A*0201 (HLA-A2.1) (Homo sapiens, UniProt P04439, D140Y/D185E/D98H/E176V/E277Q/G131W/G231S/I119V/I121R/I166T/I218V/L300P/L318F/N151K/N90K/P208A/P217A/Q86G/Q94H/R138H/R169H/T345S)
Experiment: biochemical
Assay type: binding
No end group written: not given here.

# SEQUENCE, IC50 (nM)
data = [
    ("ILIGVLVGVAL [Peptide 9013.0347]", 1520),
    ("KLMSQLLNI [Peptide 1578.29]", 35),
    ("IVNTTYLWWV [Peptide 9013.0196]", 5940),
    ("RLLTLLSVT [Peptide 9013.0076]", 1830),
    ("FLSALKLFL [Peptide 1578.17]", 17),
    ("RTLQQLLFA [Peptide 1525.18]", 948),
    ("RMLQHLLFI [Peptide 1545.04]", 16),
]

====

Target: DRB1*1201 (Homo sapiens, UniProt P01903+P01911, A100R/A169T/D57E/D86V/F55L/H45Y/K41T/L162R/M171V/P40S/Q125H/Q178H/Q39Y/Q99D/R42G/S66L/T262R/V114A/V67L/W38E/Y59H/Y61H/Y89S)
Test: biochemical
Type: binding
Mark satisfied only for IC50 values smaller than 0.5 µM; exact matches and larger values are not satisfied.

# COMPOUND, CLASS
measured = [
    ("CC(C)C[C@H](NC(=O)[C@@H](NC(=O)[C@H](CCC(N)=O)NC(=O)[C@H](Cc1c[nH]c2ccccc12)NC(=O)[C@@H]1CCCN1C(=O)[C@H](CCC(N)=O)NC(=O)[C@@H](N)CO)C(C)C)C(=O)N[C@H](C(=O)N[C@@H](C)C(=O)N[C@@H](CO)C(=O)N[C@@H](CCCNC(=N)N)C(=O)NCC(=O)N[C@@H](CCCNC(=N)N)C(=O)N[C@@H](C)C(=O)N[C@H](C(=O)O)C(C)C)C(C)C [Peptide 68.0061]", "not satisfied"),
    ("CC(C)C[C@H](NC(=O)CNC(=O)[C@H](CC(N)=O)NC(=O)[C@H](Cc1ccc(O)cc1)NC(=O)[C@@H](NC(=O)[C@H](CC(=O)O)NC(=O)[C@@H](N)CC(C)C)C(C)C)C(=O)N[C@@H](CC(C)C)C(=O)N1CCC[C@H]1C(=O)N1CCC[C@H]1C(=O)N[C@@H](Cc1ccc(O)cc1)C(=O)N[C@@H](C)C(=O)N[C@@H](CO)C(=O)N[C@@H](CS)C(=O)N[C@@H](Cc1c[nH]cn1)C(=O)O [Peptide 68.0053]", "not satisfied"),
    ("CSCC[C@H](NC(=O)CNC(=O)CNC(=O)[C@H](CCCNC(=N)N)NC(=O)[C@@H](NC(=O)[C@H](CCC(N)=O)NC(=O)[C@H](C)NC(=O)[C@@H](NC(=O)[C@@H](NC(=O)[C@H](CC(C)C)NC(=O)[C@H](Cc1c[nH]cn1)NC(=O)[C@H](Cc1ccc(O)cc1)NC(=O)[C@H](CCCCN)NC(=O)[C@H](Cc1ccccc1)NC(=O)[C@@H](N)CCSC)[C@@H](C)O)C(C)C)C(C)C)C(=O)O [Peptide 68.0119]", "satisfied"),
    ("CC[C@H](C)[C@H](NC(=O)[C@H](CO)NC(=O)[C@H](CC(N)=O)NC(=O)[C@H](C)NC(=O)[C@H](CC(C)C)NC(=O)[C@H](CCC(=O)O)NC(=O)[C@H](Cc1ccccc1)NC(=O)[C@@H](N)C(C)C)C(=O)N[C@H](C(=O)N[C@@H](CC(C)C)C(=O)N1CCC[C@H]1C(=O)N[C@@H](Cc1ccccc1)C(=O)N[C@@H](CC(=O)O)C(=O)N[C@@H](CS)C(=O)N[C@@H](CCCNC(=N)N)C(=O)O)C(C)C [Peptide 68.0124]", "not satisfied"),
    ("CC[C@H](C)[C@H](NC(=O)[C@H](CO)NC(=O)[C@H](CC(C)C)NC(=O)[C@@H](NC(=O)[C@H](CC(C)C)NC(=O)[C@@H](N)CC(=O)O)C(C)C)C(=O)N[C@@H](C)C(=O)N[C@@H](CC(C)C)C(=O)N[C@@H](CO)C(=O)N[C@H](C(=O)NCC(=O)N[C@@H](CS)C(=O)N[C@H](C(=O)NCC(=O)N[C@@H](C)C(=O)O)[C@@H](C)O)C(C)C [Peptide 68.0002]", "not satisfied"),
]
